test system: T-47D breast; experiment: NCI-60 one-dose screen, 48 h; conditions: 10 µM unless noted
Compounds without any hit were thinned out: in the full panel of roughly 83,000, 20% have a hit. Calls of active or inactive are those of the source. The calls were made as follows: active = growth percent below 10; inactive = the rest.
Log the outcome using a class from y for active, n for inactive

Here's what some known entries look like.
O=C1/C(=C/c2ccc(-c3ccccc3C(F)(F)F)o2)SC(=S)N1CCc1ccc(O)cc1
n
C=CCOc1ccc(/C=C2\SC(=S)N(CCc3ccc(O)cc3)C2=O)cc1
n
CN(C)C1CCN(C(=O)c2ccc(NC(=O)Nc3ccc(-c4nc(N5CCOCC5)c5cccn5n4)cc3)cc2)CC1
y
COc1ccc(Oc2nc(Nc3ccc(N4CCOCC4)cc3)ncc2NC(=O)c2cc(OC)cc(OC)c2)cc1
n
COc1cc(-c2nc(SCCC(C)C)nc(Nc3ccc(F)cc3)c2C#N)cc(OC)c1OC
n
O=C(CC1(O)C(=O)Nc2ccc(Br)cc21)c1ccc(Cl)cc1 (stereo unspecified)
n

query: Hi team, can someone confirm the assay call for Cc1ccc(Nc2nc(-c3cc(O)c(C)c(C)c3O)cs2)cc1 ?
result: n

query: Repeat with Nc1nc(N)c2c(n1)NC(c1ccc(Cl)cc1)CC(c1cccc(Nc3ccncc3)c1)=N2 (stereo unspecified)
result: n

====

Below: a set of entries, each annotated with reported growth.
test system: A498 renal; experiment: NCI-60 one-dose screen, 48 h (100 = growth as untreated, 0 = no growth, -100 = all killed); details: 10 µM unless noted
Compounds without any hit were thinned out: in the full panel of roughly 83,000, 20% have a hit.
Give just the number in %; leave the unit off.

Answered cases to consult:
COc1ccc(-c2csc(NC(=O)CN3CCN(CCO)CC3)n2)cc1NS(=O)(=O)c1cccc2c(N(C)C)cccc12
102
Cc1ccc(-c2nc([P+](c3ccccc3)(c3ccccc3)c3ccccc3)c(Nc3ccccc3)o2)cc1
-37.9
CCOC(=O)c1ccc(Nc2ncnc3c2cnn3-c2cccc(F)c2)cc1
99
CC(=O)c1nn(-c2ccccc2)/c(=N/N=Cc2cn(-c3ccccc3)nc2-c2cc3ccccc3oc2=O)s1
120
Clc1ccc(Nc2nc(Nc3ccc(Cl)cc3)nc(Nc3ccc(-c4cc(-c5cccc(Cl)c5)on4)cc3)n2)cc1
99.9
Cc1ccc(S(=O)(=O)OC[C@@]2(C)CC[C@]3(C)CC[C@]4(C)C(=CC[C@@H]5[C@@]6(C)CCCNC(C)(C)[C@@H]6CC[C@]54C)[C@@H]3C2)cc1
86.8

query: May I ask what growth has been recorded for Cc1ccc(-c2nc(C#N)c(S(=O)(=O)N(C)C)o2)cc1 ?
result: 77

query: Please do the same for [2H]C([2H])([2H])Oc1cccc(/C=C/C(=O)/C=C(/C=C/c2cccc(OC([2H])([2H])[2H])c2OC([2H])([2H])[2H])OB(F)F)c1OC([2H])([2H])[2H] as well.
result: 117

query: And what about the molecule CC(=O)N1N=C(c2ccc(Nc3nc(Nc4ccc(F)cc4)nc(Nc4ccc(Cl)cc4)n3)cc2)CC1c1ccc(N(C)C)cc1 (stereo unspecified) ?
result: 68.4

query: And what about the molecule CCN(CC)CCOc1ccc(/C(=C(\Cl)c2ccccc2)c2ccccc2)cc1 ?
result: 77.1

query: And then C#CCOCC1CN(C)C(=O)O1 (stereo unspecified) , what is it?
result: 107

query: Now this one: COc1ccc(/C=C2\COc3ccc(O)c(O)c3C2=O)c(OC)c1OC
result: 109

query: For N#Cc1ccccc1-c1ccc(Cn2c(-c3cscn3)nc3c(Cl)cccc32)cc1 then?
result: 74.8

query: Another molecule to check: C=C1C(=O)O[C@H]2[C@H]1CC/C(CNS(=O)(=O)c1ccc3ccccc3c1)=C\CC[C@@]1(C)O[C@@H]21
result: 58.2

Entry source: PubChem BioAssay (NCI)
